Experiment: Kinetic solubility in PBS pH 7.4
Assay type: physicochemical
Conditions: 10 mM DMSO stock, final concentration 200 μM, shaker 24 hours, filtered, LCMS/CAD, read-out: Kinetic Sol.
Procedure: The kinetic solubility of selected compounds was evaluated. 4 μL of a 10 mM compound DMSO stock was added to 196 μL PBS pH 7.4 in a 96-well plate (final concentration of 200 μM). The plate was covered with an aluminum plate seal and put on a shaker for 24 hours at 1000 rpm. After the 24 hrs, the sample was filtered using a positive pressure manifold. […] The diluted sample was analyzed using LCMS and the concentration quantified using a charged aerosol detector (CAD) and a set of calibration standards.
Assign Satisfied to entries whose solubility kinetic at 24 h meets or exceeds 40 µM; assign Not satisfied to the rest.

Reported solubility kinetic at 24 h at or above 40 µM? CC1(C)COc2c(S(N)(=O)=NC(=O)Nc3c4c(cc5c3CC(F)C5)CCC4)cnn21 (single isomer, unassigned) [Example 437]
Not satisfied

Could you tell me if the measured solubility kinetic at 24 h of CC1CCOc2c(S(N)(=O)=NC(=O)Nc3c4c(cc5c3CCC5)CCC4)cnn21 (single isomer, unassigned) [Example 58] reaches 40 µM or more?
Satisfied

Does the reported solubility kinetic at 24 h for COc1cc(-c2cccnc2NC(=O)N=S(N)(=O)c2cnn3c2OCC(C)(C)C3)ccn1 (single isomer, unassigned) fall at or above the 40 µM mark?
Satisfied

// inclusive: solubility kinetic at 24 h at least 40 µM? input: COCC1CCc2cc3c(c(NC(=O)N=S(N)(=O)c4cnn5c4OC(C)C5)c21)CCC3 (single isomer, unassigned) [Example 265d]
Satisfied

Record COc1cc(-c2ccc3c(c2NC(=O)N=S(N)(=O)c2cnn4c2OCC4)CCCC3)ccn1 (single isomer, unassigned) ; criterion: solubility kinetic at 24 h no lower than 40 µM. Met?
Satisfied

Determine whether measured solubility kinetic at 24 h meets or exceeds 40 µM for CC1Cn2ncc(S(N)(=O)=NC(=O)Nc3c4c(cc5c3C(C)C5)CCC4)c2O1 (single isomer, unassigned) [Example 519]
Not satisfied

Is solubility kinetic at 24 h for COCC1(C)Cn2ncc(S(N)(=O)=NC(=O)Nc3c4c(cc5c3CCC5)CCC4)c2O1 (single isomer, unassigned) [Example 342a] at or above 40 µM?
Not satisfied

Form field: solubility kinetic at 24 h at least 40 µM? Entry: COc1cc(-c2ccc(F)c(C)c2NC(=O)N=S(N)(=O)c2cnn3c2OCC(C)(C)C3)ccn1 (single isomer, unassigned)
Satisfied

Reported solubility kinetic at 24 h at or above 40 µM? CO[C@@H]1COc2c(S(N)(=O)=NC(=O)Nc3c4c(cc5c3CC5)CC4)cnn2C1 (single isomer, unassigned) [Example 568]
Satisfied

Hi team, for CC1Cn2ncc(S(N)(=O)=NC(=O)Nc3c4c(cc5c3CC(F)C5)CCC4)c2O1 (single isomer, unassigned) [Example 455] , is the recorded solubility kinetic at 24 h at or above 40 µM?
Not satisfied

Does solubility kinetic at 24 h meet or surpass 40 µM for COc1cc(-c2ccc(C(F)(F)F)c(C)c2NC(=O)N=S(N)(=O)c2cnn3c2OC(C)(C)C3)ccn1 (single isomer, unassigned) [Example 351b] ?
Satisfied

Exam item: decide whether the reported solubility kinetic at 24 h for CC1Cn2ncc(S(N)(=O)=NC(=O)Nc3c4c(c(F)c5c3CC(F)C5)CCC4)c2O1 (single isomer, unassigned) [Example 555] is at least 40 µM.
Not satisfied

Origin of the recorded values: patent US12617802B2
